biological target: Human MGAT-2 (Homo sapiens, UniProt Q3SYC2); construct: made in house; host or cells: Sf9 cells (membrane preparation); test: MGAT LCMS Assay; type: biochemical; conditions: human MGAT2 membranes expressed in Sf9 cells; 100 μM 2-oleoylglycerol, 15 μM oleoyl-coenzyme A; read-out: h-MGAT LCMS IC50
Sequence (Q3SYC2 whole entry): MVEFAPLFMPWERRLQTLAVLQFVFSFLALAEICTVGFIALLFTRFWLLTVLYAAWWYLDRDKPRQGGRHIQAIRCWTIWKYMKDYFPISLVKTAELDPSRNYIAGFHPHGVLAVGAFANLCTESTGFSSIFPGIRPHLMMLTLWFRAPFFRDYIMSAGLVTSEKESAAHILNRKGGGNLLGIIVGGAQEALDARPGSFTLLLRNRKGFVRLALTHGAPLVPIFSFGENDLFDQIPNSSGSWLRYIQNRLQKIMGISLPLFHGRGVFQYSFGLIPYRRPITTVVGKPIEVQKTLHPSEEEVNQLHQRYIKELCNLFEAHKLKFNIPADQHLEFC
Recorded Metric: IC50 (nM)

Molecule	Assay Target	Measure Unit	IC50
CCCCCc1ccc(-c2c(C3CCCC3)[nH]c(=O)c(C(=O)Nc3ccc(OCC)cc3)c2-c2ccc(C)cc2)cc1 [Example 40]	Human MGAT-2 (Homo sapiens, UniProt Q3SYC2)	nM	390

1: Cc1ccc(-c2cc(-c3ccc(Cc4ccccc4)cc3)[nH]c(=O)c2-c2nn[nH]n2)cc1 [Example 81]
2: Cc1ccc(-c2cc(-c3ccc(OCCCCCC(F)(F)F)cc3)[nH]c(=O)c2C(=O)NS(=O)(=O)N(C)C)cc1 [Example 56]
Problem: # return whichever of 1 and 2 has the smaller IC50 The response must carry the label of the picked entry.
Result: 2

====

target: Human MGAT-2 (Homo sapiens); construct: made in house; host or cells: Sf9 cells (membrane preparation); test: MGAT LCMS Assay; format: biochemical; conditions: human MGAT2 membranes expressed in Sf9 cells; 100 μM 2-oleoylglycerol, 15 μM oleoyl-coenzyme A; read-out: h-MGAT LCMS IC50
pIC50: −log10 of the molar value.
Recorded Metric: pIC50

Smiles Entry	pIC50
Cc1ccc(-c2cc(-c3ccc(OCCCCCC(F)(F)F)cc3Cl)[nH]c(=O)c2C(=O)Nc2ccc(OC(F)(F)F)cc2)cc1	8.15
CCc1ccc(-c2c(Cl)c(-c3ccc(OCCCC(F)(F)F)cc3)[nH]c(=O)c2-c2nnn[nH]2)s1	7.08
CC(C)n1ccc(-c2cc(-c3ccc(OCCCCCC(F)(F)F)cc3)[nH]c(=O)c2-c2nn[nH]n2)n1	7.21
CCc1ccc(-c2cc(-c3ccc(C4=CCC(C)(C)CC4)cc3)[nH]c(=O)c2-c2nn[nH]n2)s1	7.62

P: CS(=O)(=O)NC(=O)c1c(-c2ccn(CC3CC3)n2)c(F)c(-c2ccc(OCCCC(F)(F)F)cc2)[nH]c1=O
Q: CCOc1ccc(NC(=O)c2c(-c3ccc(C)cc3)c(F)c(C3CCCCC3)[nH]c2=O)cc1
Problem: Which value of pIC50 is numerically greater: that of P or that of Q ? The response must carry the label of the picked entry.
Result: P

====

molecular target: Human MGAT-2 (Homo sapiens); construct: made in house; host or cells: Sf9 cells (membrane preparation); test: MGAT LCMS Assay; type: biochemical; details: human MGAT2 membranes expressed in Sf9 cells; 100 μM 2-oleoylglycerol, 15 μM oleoyl-coenzyme A; read-out: h-MGAT LCMS IC50
pIC50: −log10 of the molar value.
Recorded Metric: pIC50

The examples below pair each entry with its known result.
Compound	Recorded Metric	Reading
CCCCCc1ccc(-c2cc(-c3ccc(CC)o3)c(C(=O)Nc3ccc(OCC)cc3)c(=O)[nH]2)cc1 [Example 42]	pIC50	6.40
Cc1ccc(-c2c(C)c(-c3ccc(OCCCC(F)(F)F)cc3)[nH]c(=O)c2-c2nnn[nH]2)cc1 [Example 7]	pIC50	8.05
CCc1cnc(-c2cc(-c3ccc(OCCCC(F)(F)F)cc3F)[nH]c(=O)c2C(=O)NS(C)(=O)=O)s1 [Example 146]	pIC50	7.54
CC(C)(C)C1CC=C(c2ccc(-c3cc(-c4ccn(CC5CC5)n4)c(-c4nn[nH]n4)c(=O)[nH]3)cc2)CC1 (stereo not shown) [Example 171]	pIC50	8.22
Cc1ccc(-c2c(F)c(-c3ccc(OCCCC(F)(F)F)cc3)[nH]c(=O)c2-c2nnn[nH]2)cc1 [Example 17]	pIC50	6.53
O=c1[nH]c(-c2ccc(OCCCCCC(F)(F)F)cc2F)cc(-c2nn(CC3CC3)cc2Cl)c1-n1nn[nH]c1=O [Example 169]	pIC50	8.05
O=C(NS(=O)(=O)C1CC1)c1c(-c2ccc(CC3CC3)cc2)cc(-c2ccc(OCCCCCC(F)(F)F)cc2)[nH]c1=O [Example 63]	pIC50	7.77
CCc1ccc(-c2cc(-c3ccc(OCCCCCC(F)(F)F)cc3)[nH]c(=O)c2C(=O)NS(=O)(=O)C2CC2)s1 [Example 84]	pIC50	9.00
O=c1[nH]c(-c2ccc(OCCCCCC(F)(F)F)cc2C(F)(F)F)cc(-c2ccn(CC3CC3)n2)c1-c1nn[nH]n1 [Example 155]	pIC50	8.52
CCOc1ccc(NC(=O)c2c(-c3cnc(N(C)C)s3)cc(-c3ccc(OCCCC(F)(F)F)cc3)[nH]c2=O)cc1 [Example 67]	pIC50	8.70

1: CCOc1cc(OCCCC(F)(F)F)ccc1-c1cc(-c2ncc(C3CC3)s2)c(C(=O)NS(C)(=O)=O)c(=O)[nH]1 [Example 143]
2: Cc1ccc(-c2cc(-c3ccc(OCCCC(F)(F)F)cc3)[nH]c(=O)c2C(=O)NC2CCC2)cc1 [Example 79]
Problem: # return whichever of 1 and 2 has the smaller pIC50 The response must carry the label of the picked entry.
Result: 2
(2: 6.70, 1: 7.28)

a: CCCC1CC=C(c2ccc(-c3cc(-c4ccc(CC)s4)c(-c4nn[nH]n4)c(=O)[nH]3)cc2)CC1 (stereo not shown) [Example 164]
b: Cc1ccc(-c2cc(-c3ncc(CCCCCCC(F)(F)F)s3)[nH]c(=O)c2-c2nnn[nH]2)cc1 [Example 62]
c: CCc1ccc(-c2cc(-c3ccc(OCCCC(F)(F)F)cc3Cl)[nH]c(=O)c2C(=O)NS(C)(=O)=O)s1 [Example 140]
Problem: # rank by pIC50, ascending (min first) # list labels per requested ordering
Result: b, a, c
